# Measurement Protocol: mitochondrial membrane potential change in A549 cells, profiling panel, cell-based, JC-1 fluorescence, basal, 24 h, 100 nL (AID 1138);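 further: A549 lung adenocarcinoma cells under basal conditions with no added stimulus; test concentration not given here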
# Measurement Context: higher = more signal
Reported Property: z-score

>>> recorded_number("C#CCCCON=C1C[C@@H](O)[C@@H](O)[C@@H]2[C@@H]3C(=O)N([C@@H](C)c4ccccc4)C(=O)[C@@H]3CC[C@@H]12")
-0.683
>>> recorded_number("COC(=O)[C@H](C)NC(=O)CCC1CC(OC(=O)NCCc2ccc(F)cc2)CC2(CCCC(COC(=O)NCCOc3ccccc3)O2)O1 (some centres not stated)")
1.08
>>> recorded_number("C[C@@H]1C=CCC(=O)OC[C@H](C)C(=O)N[C@@H](Cc2ccccc2)C(=O)OC1")
-0.00638
>>> recorded_number("CC(=O)OC[C@H]1O[C@H](C#CCCc2ccccc2)C=C[C@@H]1OC(C)=O")
0.0303
>>> recorded_number("COC(=O)[C@@H]1CC[C@H](C)[C@@H](c2ccc(C)cc2)N1C(=O)c1ccc(C=NOC[C@@H](O)[C@H]2O[C@@H]3OC(C)(C)O[C@@H]3[C@H]2O)cc1")
-1.78
>>> recorded_number("COC(=O)CC=C[C@@H](C)[C@@H](C=NOC(C)CN1CCCCc2nc(C)c(C)cc21)NS(=O)(=O)c1ccc(C)cc1 (some centres not stated)")
-0.297
>>> recorded_number("CCCNC(=O)OC[C@H]1O[C@H](CCON=C[C@@H](C)[C@H](OCc2ccccc2)C(C)C)C=C[C@@H]1Oc1ccc(OC)cc1")
1.63
